Each record here notes measured pIC50.
molecular target: Proteasome chymotrypsin-like activity (S26 protein from RPMI8226 cells) (Homo sapiens, UniProt P28074)
Sequence (P28074 60-263 limits assumed): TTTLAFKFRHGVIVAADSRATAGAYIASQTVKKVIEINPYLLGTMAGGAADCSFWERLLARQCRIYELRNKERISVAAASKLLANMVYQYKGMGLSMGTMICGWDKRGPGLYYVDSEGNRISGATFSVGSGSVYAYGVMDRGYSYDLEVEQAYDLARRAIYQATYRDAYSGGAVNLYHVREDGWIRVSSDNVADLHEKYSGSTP
pIC50: −log10 of the molar value.
readout name: pIC50

{"columns": ["compound", "value"],
 "data": [
  ["CC(C)C[C@H](NC(=O)C1(Cc2ccccc2)CC(CNC(=O)c2cnn(C)c2)=NO1)B(O)O (stereo partly shown)", "> 8.00"],
  ["COc1cccc(CC2(C(=O)N[C@@H](CC(C)C)B(O)O)CC(CNC(=O)c3cccn4ccnc34)=NO2)c1 (stereo partly shown)", "> 8.00"],
  ["Cc1nn(C(C)C)c(C(=O)NCC2=NOC(Cc3ccccc3)(C(=O)N[C@@H](CC(C)C)B(O)O)C2)c1Cl (stereo partly shown)", "> 8.00"],
  ["COc1cccc(CC2(C(=O)N[C@@H](CC(C)C)B(O)O)CC(CNC(=O)c3ccnn3C(C)C)=NO2)c1 (stereo partly shown)", "> 8.00"],
  ["CC(C)C[C@H](NC(=O)C1(Cc2ccccc2)CC(CNC(=O)c2cccn3c(Cl)cnc23)=NO1)B(O)O (stereo partly shown)", "> 8.00"],
  ["CC(C)C[C@H](NC(=O)C1(Cc2ccccc2)CC(CNC(=O)c2cc(-c3ccncc3)nn2C(C)C)=NO1)B(O)O (stereo partly shown)", "> 8.00"],
  ["O=C(N[C@@H](Cc1ccccc1)B(O)O)C1(Cc2ccccc2)CC(COCc2ccccn2)=NO1 (stereo partly shown)", "> 7.60"],
  ["CC(C)C[C@H](NC(=O)C1(C(O)c2ccccc2)CC(CNC(=O)c2nccc3ccccc23)=NO1)B(O)O (stereo partly shown)", "> 8.00"],
  ["CC(C)C[C@H](NC(=O)C1(C(C)C)CC(CNC(=O)c2cc(Cl)ccc2Cl)=NO1)B(O)O (stereo partly shown)", "> 7.00"],
  ["CC(C)C[C@H](NC(=O)C1(Cc2ccccc2)CC(CNC(=O)c2ccc(C(F)(F)F)nc2)=NO1)B(O)O (stereo partly shown)", "> 8.00"],
  ["CC(C)C[C@H](NC(=O)C1(Cc2ccccc2)CC(CNCc2nccc3ccccc23)=NO1)B(O)O (stereo partly shown)", "> 7.60"],
  ["CC(C)C[C@H](NC(=O)C1(Cc2ccccc2)CC(COc2ccccc2)=NO1)B(O)O (stereo partly shown)", "> 8.00"],
  ["CCC1(C(=O)N[C@@H](CC(C)C)B(O)O)CC(c2cnccn2)=NO1 (stereo partly shown)", "< 6.00"],
  ["CC(C)C[C@H](NC(=O)C1CC(CNC(=O)c2ccc(C(C)(C)C)cc2)=NO1)B(O)O (stereo partly shown)", "> 7.00"],
  ["CC(C)C[C@H](NC(=O)C1CC(CNC(=O)c2ccccc2)=NO1)B(O)O (stereo partly shown)", "> 7.00"],
  ["Cc1nocc1C(=O)NCC1=NOC(Cc2ccccc2)(C(=O)N[C@@H](CC(C)C)B(O)O)C1 (stereo partly shown)", "> 8.00"],
  ["CC(C)C[C@H](NC(=O)C1(Cc2ccccc2)CC(CNC(=O)c2cccn3ccnc23)=NO1)B(O)O (stereo partly shown)", "> 8.00"],
  ["CC(C)C[C@H](NC(=O)C1CC(CNC(=O)c2cccc3c2CCCC3)=NO1)B(O)O (stereo partly shown)", "> 8.00"],
  ["CC(C)C[C@H](NC(=O)C1(Cc2ccccc2)CC(CNC(=O)c2cnc3c(ccn3C(C)C)c2)=NO1)B(O)O (stereo partly shown)", "> 8.00"]
]}
